- Test system: Staphylococcus aureus NRS384 (MRSA USA300)
- ASSAY OVERVIEW: Initial MIC screening, broth microdilution (CLSI)
- Assay type: cell-based
- CONDITIONS: Staphylococcus aureus, Staphylococcus aureus NRS384 (MRSA USA300), broth microdilution, visual reading; read-out: MIC
MEASUREMENT TYPE: MIC (µg/mL)

Take a look at these entries with their results.
COMPOUND: C=C1C(=O)O[C@H](c2ccc(C)cc2)[C@@H]1c1ccccc1 [Compound 71]
MIC [µg/mL]: 32

COMPOUND: COc1ccc([C@H]2OC(=O)[C@@H](CN(C)C)[C@H]2c2ccc(C)cc2)cc1 [Compound 7]
MIC [µg/mL]: 32

COMPOUND: C=C1C(=O)O[C@H](c2cccc(OC)c2)[C@@H]1c1ccccc1Br [Compound 55]
MIC [µg/mL]: 8

COMPOUND: C=C1C(=O)O[C@H](c2ccc(OC)cc2)[C@@H]1c1ccc(C)cc1 [Compound 74]
MIC [µg/mL]: 16

COMPOUND: C=C1C(=O)O[C@H](c2ccc(OC)cc2)[C@@H]1c1ccc(C(F)(F)F)cc1 [Compound 79]
MIC [µg/mL]: 8

(1) C=C1C(=O)O[C@H](c2cccc(Br)c2)[C@@H]1c1ccc(C#N)cc1 [Compound 1]
(2) CCN(CC)C[C@@H]1C(=O)O[C@H](c2ccccc2)[C@@H]1c1ccccc1 [Compound 62]
(3) C=C1C(=O)O[C@H](c2cnc3ccccc3c2)[C@H]1c1ccccc1 [Compound 99]
(4) CN(C)CC1C(=O)O[C@H](c2cccc3ccccc23)[C@@H]1c1ccc2ccccc2c1 (stereo partly drawn) [Compound 169]
(5) C=C1C(=O)O[C@H](c2ccc(C#N)cc2)[C@@H]1c1ccccc1 [Compound 39]
Task: Please produce an ascending ranking of these compounds based on MIC. Answer with the labels in sequence, matching the requested order.
Output: 4, 1, 2, 3, 5
